# systemTested: P2Y12 receptor (Homo sapiens, UniProt Q9H244)
# Construct: endogenous in cells
# Sequence (Q9H244 whole entry): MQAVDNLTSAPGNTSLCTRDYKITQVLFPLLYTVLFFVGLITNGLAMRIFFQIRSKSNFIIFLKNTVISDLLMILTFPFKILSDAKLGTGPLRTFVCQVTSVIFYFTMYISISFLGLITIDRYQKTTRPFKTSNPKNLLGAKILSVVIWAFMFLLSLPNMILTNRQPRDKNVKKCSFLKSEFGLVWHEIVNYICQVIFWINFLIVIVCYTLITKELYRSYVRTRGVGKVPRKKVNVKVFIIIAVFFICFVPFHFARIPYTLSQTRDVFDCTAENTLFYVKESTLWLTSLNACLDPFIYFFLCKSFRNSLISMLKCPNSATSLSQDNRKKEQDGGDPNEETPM
# assayText: platelet ADP receptor binding assay (ARB): inhibition of [3H]2-MeS-ADP binding to platelets
# conditions: [3H]2-MeS-ADP binding to apyrase-washed human platelets
Listing of entries alongside the reported IC50.

# molecule, systemTested, IC50
rows = [
    ("CCOC(=O)C(NC(=O)c1ccc(-n2c(=O)[nH]c3cc(NC)c(F)cc3c2=O)cc1)c1ccc(Cl)s1 (stereo not drawn) [Compound 26]", "P2Y12 receptor (Homo sapiens, UniProt Q9H244)", "> 500 nM"),
    ("Cc1ccc2c(c1)C(=O)N(c1ccc(C(=O)NC(C(=O)O)c3ccc(Cl)s3)cc1)CO2 (stereo not drawn) [Compound 77]", "P2Y12 receptor (Homo sapiens, UniProt Q9H244)", "> 500 nM"),
    ("COc1ccc2c(=O)n(-c3ccc(C(=O)NC(C(=O)O)c4ccc(Cl)s4)cc3)ccc2c1 (stereo not drawn) [Compound 101]", "P2Y12 receptor (Homo sapiens, UniProt Q9H244)", "> 500 nM"),
    ("CNc1cc2c(cc1F)C(=O)N(c1ccc(C(=O)NC(c3cccc(Cl)c3)c3nnn[nH]3)cc1)CO2 (stereo not drawn) [Compound 80]", "P2Y12 receptor (Homo sapiens, UniProt Q9H244)", "50 to 500 nM"),
    ("O=C(NCc1nnn[nH]1)c1ccc(-n2c(=O)[nH]c3cc(NCc4ccc(F)cc4)ccc3c2=O)cc1 [Compound 10]", "P2Y12 receptor (Homo sapiens, UniProt Q9H244)", "> 500 nM"),
    ("CNc1cc2[nH]c(=O)n(-c3ccc(C(=O)NC(C(=O)O)c4cccc(Cl)c4)cc3)c(=O)c2cc1F (stereo not drawn) [Compound 15]", "P2Y12 receptor (Homo sapiens, UniProt Q9H244)", "50 to 500 nM"),
    ("CNc1cc2c(cc1F)C(=O)N(c1ccc(C(=O)N[C@@H](c3noc(=O)[nH]3)c3ccc(Cl)s3)cc1)CO2 [Compound 88]", "P2Y12 receptor (Homo sapiens, UniProt Q9H244)", "< 50 nM"),
    ("CNc1cc2[nH]c(=O)n(-c3ccc(C(=O)NC(c4cc(Cl)cc(Cl)c4)c4nnn[nH]4)cc3)c(=O)c2cc1F (stereo not drawn) [Compound 30]", "P2Y12 receptor (Homo sapiens, UniProt Q9H244)", "> 500 nM"),
    ("CNc1cc2[nH]c(=O)n(-c3ccc(C(=O)NC(C(=O)O)c4ccc(Cl)s4)c(F)c3)c(=O)c2cc1F (stereo not drawn) [Compound 44]", "P2Y12 receptor (Homo sapiens, UniProt Q9H244)", "50 to 500 nM"),
    ("CNc1cc2c(cc1F)C(=O)N(c1ccc(C(=O)NC(c3ccc(Cl)s3)c3nnnn3C)cc1)CO2 (stereo not drawn) [Compound 73]", "P2Y12 receptor (Homo sapiens, UniProt Q9H244)", "50 to 500 nM"),
    ("CNc1cc2[nH]c(=O)n(-c3cccc(C(=O)NC(C(=O)O)c4ccc(Cl)s4)c3)c(=O)c2cc1F (stereo not drawn) [Compound 111]", "P2Y12 receptor (Homo sapiens, UniProt Q9H244)", "> 500 nM"),
    ("CNc1cc2[nH]c(=O)n(-c3cc(C(=O)NC(C(=O)O)c4ccc(Cl)s4)cs3)c(=O)c2cc1F (stereo not drawn) [Compound 113]", "P2Y12 receptor (Homo sapiens, UniProt Q9H244)", "> 500 nM"),
    ("CNc1cc2[nH]c(=O)n(-c3ccc(C(=O)NC(CO)c4ccc(Cl)s4)cc3)c(=O)c2cc1F (stereo not drawn) [Compound 36]", "P2Y12 receptor (Homo sapiens, UniProt Q9H244)", "50 to 500 nM"),
    ("CNc1cc2[nH]c(=O)n(-c3ccc(C(=O)NC(c4cccc(OC(F)(F)F)c4)c4nnn[nH]4)cc3)c(=O)c2cc1F (stereo not drawn) [Compound 31]", "P2Y12 receptor (Homo sapiens, UniProt Q9H244)", "> 500 nM"),
    ("CNc1cc2[nH]c(=O)n(-c3ccc(C(=O)NCc4ccc(Cl)s4)cc3)c(=O)c2cc1F [Compound 4]", "P2Y12 receptor (Homo sapiens, UniProt Q9H244)", "50 to 500 nM"),
]

====

# systemTested: P2Y12 receptor (Homo sapiens, UniProt Q9H244)
# Construct: endogenous in cells
# assayText: platelet ADP receptor binding assay (ARB): inhibition of [3H]2-MeS-ADP binding to platelets
# conditions: [3H]2-MeS-ADP binding to apyrase-washed human platelets
pIC50: −log10 of the molar value.
Listing of entries alongside the reported pIC50.

# compound, pIC50
measured = [
    ("CNc1cc2[nH]c(=O)n(-c3ccc(C(=O)NC(c4cccc(C)c4)c4nnn[nH]4)cc3)c(=O)c2cc1F (stereo not shown)", "< 6.30"),
    ("N#Cc1ccc2c(=O)n(-c3ccc(C(=O)NC(C(=O)O)c4ccc(Cl)s4)cc3)ccc2c1 (stereo not shown)", "< 6.30"),
    ("CNc1cc2[nH]c(=O)n(-c3ccc(C(=O)NC(C(=O)O)c4ccc(Cl)s4)c(OC)c3)c(=O)c2cc1F (stereo not shown)", "< 6.30"),
    ("CNc1cc2c(cc1F)C(=O)N(c1ccc(C(=O)NC(c3noc(=S)[nH]3)c3ccc(Cl)s3)cc1)CO2 (stereo not shown)", "> 7.30"),
    ("CCc1ccc2c(=O)n(-c3ccc(C(=O)NC(C(=O)O)c4ccc(Cl)s4)cc3)ccc2c1 (stereo not shown)", "< 6.30"),
    ("CCOC(=O)C(NC(=O)c1ccc(N2COc3cc(NC)c(F)cc3C2=O)cc1)c1ccc(Cl)s1 (stereo not shown)", "6.30 to 7.30"),
    ("CNc1cc2[nH]c(=O)n(-c3ccc(C(=O)NC(c4nnn[nH]4)c4ccc(Cl)s4)cc3OC)c(=O)c2cc1F (stereo not shown)", "6.30 to 7.30"),
]

====

# systemTested: P2Y12 receptor (Homo sapiens, UniProt Q9H244)
# Construct: endogenous in cells
# assayText: platelet ADP receptor binding assay (ARB): inhibition of [3H]2-MeS-ADP binding to platelets
# conditions: [3H]2-MeS-ADP binding to apyrase-washed human platelets

# molecule, IC50
records = [
    ("CNc1ccc2c(=O)n(-c3ccc(C(=O)NC(C(=O)O)c4ccc(Cl)s4)cc3)c(=O)[nH]c2c1 (stereo not shown)", "0.05 to 0.5 µM"),
    ("CNc1cc2[nH]c(=O)n(-c3ccc(C(=O)NC(c4cccc(OC)c4)c4nnn[nH]4)cc3)c(=O)c2cc1F (stereo not shown)", "> 0.5 µM"),
    ("CNc1cc2c(cc1F)C(=O)N(c1ccc(CNC(C(=O)O)c3ccc(Cl)s3)cc1)CO2 (stereo not shown)", "0.05 to 0.5 µM"),
    ("CNc1cc2[nH]c(=O)n(-c3ccc(C(=O)NC(C(=O)OCCN4CCOCC4)c4ccc(Cl)s4)cc3)c(=O)c2cc1F (stereo not shown)", "0.05 to 0.5 µM"),
    ("CNc1cc2c(cc1F)C(=O)N(c1ccc(C(=O)NC(C(N)=O)c3ccc(Cl)s3)cc1)CO2 (stereo not shown)", "0.05 to 0.5 µM"),
    ("CNc1cc2c(cc1F)C(=O)N(c1ccc(C(=O)NC(c3noc(=O)[nH]3)c3ccc(Cl)s3)cc1)CO2 (stereo not shown)", "< 0.05 µM"),
    ("CNc1cc2[nH]c(=O)n(-c3ccc(C(=O)NC(C(=O)O)c4ccc(C)s4)cc3)c(=O)c2cc1F (stereo not shown)", "0.05 to 0.5 µM"),
]

====

# systemTested: P2Y12 receptor (Homo sapiens, UniProt Q9H244)
# Construct: endogenous in cells
# assayText: platelet ADP receptor binding assay (ARB): inhibition of [3H]2-MeS-ADP binding to platelets
# conditions: [3H]2-MeS-ADP binding to apyrase-washed human platelets
pIC50: −log10 of the molar value.
Listing of entries alongside the reported pIC50.
resultType: pIC50

# compound, systemTested, measured
measured = [
    ("CNc1cc2[nH]c(=O)n(-c3ccc(C(=O)NC(CC(=O)O)c4ccc(Cl)s4)cc3)c(=O)c2cc1F (centres unmarked)", "P2Y12 receptor (Homo sapiens, UniProt Q9H244)", "6.30 to 7.30"),
    ("CNc1cc2c(cc1F)C(=O)N(c1ccc(CC(=O)NC(C(N)=O)c3ccc(Cl)s3)cc1)CO2 (centres unmarked)", "P2Y12 receptor (Homo sapiens, UniProt Q9H244)", "6.30 to 7.30"),
    ("CNc1cc2[nH]c(=O)n(-c3ccc(C(=O)NC(c4ccc(Cl)cc4)c4nnn[nH]4)cc3)c(=O)c2cc1F (centres unmarked)", "P2Y12 receptor (Homo sapiens, UniProt Q9H244)", "< 6.30"),
    ("CCc1ccc2c(c1)CCN(c1ccc(C(=O)NC(C(=O)O)c3ccc(Cl)s3)cc1)C2=O (centres unmarked)", "P2Y12 receptor (Homo sapiens, UniProt Q9H244)", "< 6.30"),
    ("O=C(NC(C(=O)O)c1ccc(Cl)s1)c1ccc(-n2c(=O)[nH]c3ccccc3c2=O)cc1 (centres unmarked)", "P2Y12 receptor (Homo sapiens, UniProt Q9H244)", "< 6.30"),
    ("CNc1cc2[nH]c(=O)n(-c3ccc(C(=O)NC(C(=O)O)c4ccc(Cl)s4)c(C)c3)c(=O)c2cc1F (centres unmarked)", "P2Y12 receptor (Homo sapiens, UniProt Q9H244)", "6.30 to 7.30"),
    ("CNc1cc2c(cc1F)C(=O)N(c1ccc(C(=O)N(CCC(=O)O)Cc3ccc(Cl)s3)cc1)CO2", "P2Y12 receptor (Homo sapiens, UniProt Q9H244)", "< 6.30"),
    ("CNc1cc2[nH]c(=O)n(-c3ccc(C(=O)N[C@@H](c4noc(=O)[nH]4)c4ccc(Cl)s4)cc3)c(=O)c2cc1F", "P2Y12 receptor (Homo sapiens, UniProt Q9H244)", "> 7.30"),
    ("O=C(NC(Cc1cccs1)C(=O)O)c1ccc(-n2c(=O)[nH]c3cc(NCc4ccc(F)cc4)ccc3c2=O)cc1 (centres unmarked)", "P2Y12 receptor (Homo sapiens, UniProt Q9H244)", "6.30 to 7.30"),
    ("O=C(NCc1ccc(Cl)s1)Nc1ccc(-n2c(=O)[nH]c3cc(NCc4ccc(F)cc4)ccc3c2=O)cc1", "P2Y12 receptor (Homo sapiens, UniProt Q9H244)", "> 7.30"),
    ("CNc1cc2ccn(-c3ccc(C(=O)NC(c4nnn[nH]4)c4ccc(Cl)s4)cc3)c(=O)c2cc1F (centres unmarked)", "P2Y12 receptor (Homo sapiens, UniProt Q9H244)", "> 7.30"),
    ("CNc1cc2[nH]c(=O)n(-c3ccc(C(=O)NC(c4nsc(=O)[nH]4)c4ccc(Cl)s4)cc3)c(=O)c2cc1F (centres unmarked)", "P2Y12 receptor (Homo sapiens, UniProt Q9H244)", "6.30 to 7.30"),
    ("CNc1cc2[nH]c(=O)n(-c3ccc(C(=O)NC(C(=O)O)c4ccc(Cl)s4)cc3)c(=O)c2cc1F (centres unmarked) [Compound 5]", "P2Y12 receptor (Homo sapiens, UniProt Q9H244)", "> 7.30"),
    ("CNc1cc2[nH]c(=O)n(-c3ccc(C(=O)N(CCC(=O)O)Cc4ccc(Cl)s4)cc3)c(=O)c2cc1F", "P2Y12 receptor (Homo sapiens, UniProt Q9H244)", "< 6.30"),
    ("CNc1cc2c(=O)n(-c3ccc(C(=O)NC(c4noc(=O)[nH]4)c4ccc(Cl)s4)cc3)c(=O)[nH]c2cc1F (centres unmarked)", "P2Y12 receptor (Homo sapiens, UniProt Q9H244)", "6.30 to 7.30"),
    ("CNc1cc2[nH]c(=O)n(-c3ccc(C(=O)NC(C(=O)OC)c4ccc(Cl)s4)cc3)c(=O)c2cc1F (centres unmarked)", "P2Y12 receptor (Homo sapiens, UniProt Q9H244)", "< 6.30"),
    ("CNc1cc2ncn(-c3ccc(C(=O)NC(C(=O)O)c4ccc(Cl)s4)cc3)c(=O)c2cc1F (centres unmarked)", "P2Y12 receptor (Homo sapiens, UniProt Q9H244)", "6.30 to 7.30"),
    ("CNc1cc2c(cc1F)C(=O)N(c1ccc(C(=O)NC(Cc3ccccc3)C(=O)O)cc1)CO2 (centres unmarked)", "P2Y12 receptor (Homo sapiens, UniProt Q9H244)", "< 6.30"),
    ("CNc1cc2[nH]c(=O)n(-c3ccc(C(=O)NC(c4noc(=S)[nH]4)c4ccc(Cl)s4)cc3)c(=O)c2cc1F (centres unmarked)", "P2Y12 receptor (Homo sapiens, UniProt Q9H244)", "6.30 to 7.30"),
    ("CNc1cc2c(cc1F)C(=O)N(c1ccc(CC(=O)NC(C(=O)N(C)C)c3ccc(Cl)s3)cc1)CO2 (centres unmarked)", "P2Y12 receptor (Homo sapiens, UniProt Q9H244)", "< 6.30"),
    ("CNc1cc2[nH]c(=O)n(-c3ccc(C(=O)NC(C(=O)O)c4ccc(Cl)s4)cc3)c(=O)c2cc1F (centres unmarked) [Compound 13]", "P2Y12 receptor (Homo sapiens, UniProt Q9H244)", "6.30 to 7.30"),
    ("CNc1cc2[nH]c(=O)n(-c3ccc(C(=O)N(CC(=O)O)Cc4ccc(Cl)s4)cc3)c(=O)c2cc1F", "P2Y12 receptor (Homo sapiens, UniProt Q9H244)", "6.30 to 7.30"),
    ("CNc1cc2c(cc1F)C(=O)N(c1ccc(CC(=O)NC(C(=O)O)c3ccc(Cl)s3)cc1)CO2 (centres unmarked)", "P2Y12 receptor (Homo sapiens, UniProt Q9H244)", "< 6.30"),
    ("CNc1cc2[nH]c(=O)n(-c3ccc(C(=O)NC(C(N)=O)c4ccc(Cl)s4)cc3)c(=O)c2cc1F (centres unmarked)", "P2Y12 receptor (Homo sapiens, UniProt Q9H244)", "6.30 to 7.30"),
    ("COC(=O)C(NC(=O)c1ccc(N2COc3ccc(C)cc3C2=O)cc1)c1ccc(Cl)s1 (centres unmarked)", "P2Y12 receptor (Homo sapiens, UniProt Q9H244)", "< 6.30"),
    ("CNc1cc2c(cc1F)C(=O)N(c1ccc(C(=O)NC(c3ccc(Cl)s3)c3nc(C)cs3)cc1)CO2 (centres unmarked)", "P2Y12 receptor (Homo sapiens, UniProt Q9H244)", "6.30 to 7.30"),
    ("CNc1cc2[nH]c(=O)n(-c3ccc(C(=O)NC(c4ccc(Cl)c(Cl)c4)c4nnn[nH]4)cc3)c(=O)c2cc1F (centres unmarked)", "P2Y12 receptor (Homo sapiens, UniProt Q9H244)", "< 6.30"),
    ("CNc1cc2c(cc1F)C(=O)N(c1ccc(C(=O)N[C@H](c3nnn[nH]3)c3ccc(Cl)s3)cc1)CO2", "P2Y12 receptor (Homo sapiens, UniProt Q9H244)", "> 7.30"),
    ("CNc1cc2c(cc1F)C(=O)N(c1ccc(C(=O)NC(CC(=O)O)c3ccc(Cl)s3)cc1)CO2 (centres unmarked)", "P2Y12 receptor (Homo sapiens, UniProt Q9H244)", "6.30 to 7.30"),
]
